# assay info: Evaluation of blood-brain barrier (BBB) permeability through oral administration
# Assay type: in vivo, mice
# particulars: mouse, in vivo; mice, oral, dose 30 mg/kg, 4 hr; read-out: Mean drug concentrations in plasma at 4 hr
The following molecules are shown together with reported concentration at 4 h values.
readout kind: concentration at 4 h (ng/mL)

structure_smiles=COc1ccc(-c2cc3c(cc2F)[C@H](NC(=O)O[C@@H]2CN4CCC2CC4)C(C)(C)CC3)c(F)c1 readout_kind="concentration at 4 h" unit=ng/mL reported_measurement=1260
structure_smiles=CC(C)Oc1ccc(-c2cc3c(cc2F)[C@H](NC(=O)O[C@@H]2CN4CCC2CC4)C(C)(C)C3)c(Cl)c1 readout_kind="concentration at 4 h" unit=ng/mL reported_measurement=545
structure_smiles=CC(C)Oc1ccc(-c2cc3c(cc2F)[C@H](NC(=O)O[C@@H]2CN4CCC2CC4)C(C)(C)C3)cc1F readout_kind="concentration at 4 h" unit=ng/mL reported_measurement=1170
structure_smiles=CC(C)Oc1ccc(-c2cc3c(cc2F)[C@H](NC(=O)O[C@@H]2CN4CCC2CC4)C(C)(C)CC3)cc1F readout_kind="concentration at 4 h" unit=ng/mL reported_measurement=1480

###

# experimental target: glucosylceramide synthase (GCS) (Homo sapiens (Human))
# Sequence (Q16739 whole entry): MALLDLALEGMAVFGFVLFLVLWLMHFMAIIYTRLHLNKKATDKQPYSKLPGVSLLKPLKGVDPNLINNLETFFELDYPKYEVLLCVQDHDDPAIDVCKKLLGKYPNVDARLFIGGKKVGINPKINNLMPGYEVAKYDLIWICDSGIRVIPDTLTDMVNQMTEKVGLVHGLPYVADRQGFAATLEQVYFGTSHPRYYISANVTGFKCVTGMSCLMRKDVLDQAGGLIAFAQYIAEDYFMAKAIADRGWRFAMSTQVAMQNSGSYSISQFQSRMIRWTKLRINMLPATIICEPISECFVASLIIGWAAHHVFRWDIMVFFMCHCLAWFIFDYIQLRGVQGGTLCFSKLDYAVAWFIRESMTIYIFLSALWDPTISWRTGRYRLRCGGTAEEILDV
# assay info: Evaluation of inhibitory activities against GCS (A549 cell lysate, NBD C6-ceramide, HPLC)
# Format: biochemical
pIC50: −log10 of the molar value.
readout kind: pIC50

structure_smiles=COc1cc(-c2ccc3c(c2)CC(C)(C)[C@H]3NC(=O)O[C@@H]2CN3CCC2CC3)ccc1OC(C)C experimental_target="glucosylceramide synthase (GCS) (Homo sapiens (Human))" readout_kind=pIC50 reported_measurement=8.65
structure_smiles=CCCOc1cccc(-c2ccc3c(c2)CCC(C)(C)[C@H]3NC(=O)O[C@@H]2CN3CCC2CC3)c1 experimental_target="glucosylceramide synthase (GCS) (Homo sapiens (Human))" readout_kind=pIC50 reported_measurement=8.37
structure_smiles=CCOc1cc2c(cc1-c1ccc(CC(C)C)cc1)CC(C)(C)[C@H]2NC(=O)O[C@@H]1CN2CCC1CC2 experimental_target="glucosylceramide synthase (GCS) (Homo sapiens (Human))" readout_kind=pIC50 reported_measurement=8.70
structure_smiles=CC(C)Oc1c(Cl)cc(-c2ccc3c(c2)CC(C)(C)[C@H]3NC(=O)O[C@@H]2CN3CCC2CC3)cc1Cl experimental_target="glucosylceramide synthase (GCS) (Homo sapiens (Human))" readout_kind=pIC50 reported_measurement=8.49
structure_smiles=CC(C)COc1cc(Cl)cc(-c2cc3c(cc2F)[C@H](NC(=O)O[C@@H]2CN4CCC2CC4)C(C)(C)C3)c1 experimental_target="glucosylceramide synthase (GCS) (Homo sapiens (Human))" readout_kind=pIC50 reported_measurement=8.99
structure_smiles=CC(C)Oc1cccc(-c2ccc3c(c2)CCC(C)(C)[C@H]3NC(=O)O[C@@H]2CN3CCC2CC3)c1 experimental_target="glucosylceramide synthase (GCS) (Homo sapiens (Human))" readout_kind=pIC50 reported_measurement=9.26
structure_smiles=CCCc1ccc(-c2cc3c(cc2F)[C@H](NC(=O)O[C@@H]2CN4CCC2CC4)C(C)(C)CC3)cc1 experimental_target="glucosylceramide synthase (GCS) (Homo sapiens (Human))" readout_kind=pIC50 reported_measurement=9.72
structure_smiles=CCOc1cc2c(cc1-c1ccc(OC)cc1F)CC(C)(C)[C@H]2NC(=O)O[C@@H]1CN2CCC1CC2 experimental_target="glucosylceramide synthase (GCS) (Homo sapiens (Human))" readout_kind=pIC50 reported_measurement=8.73
structure_smiles=CCOc1ccc(-c2cc3c(cc2OCC)[C@H](NC(=O)O[C@@H]2CN4CCC2CC4)C(C)(C)C3)cc1 experimental_target="glucosylceramide synthase (GCS) (Homo sapiens (Human))" readout_kind=pIC50 reported_measurement=8.80
structure_smiles=CCCOc1ccc(-c2cc3c(cc2F)[C@H](NC(=O)O[C@@H]2CN4CCC2CC4)C(C)(C)C3)cc1Cl experimental_target="glucosylceramide synthase (GCS) (Homo sapiens (Human))" readout_kind=pIC50 reported_measurement=9.11
structure_smiles=CCOc1cc2c(cc1-c1ccc(OC(C)C)cc1)CC(C)(C)[C@H]2NC(=O)O[C@@H]1CN2CCC1CC2 experimental_target="glucosylceramide synthase (GCS) (Homo sapiens (Human))" readout_kind=pIC50 reported_measurement=9.15
structure_smiles=CC1(C)Cc2cc(-c3ccc(OCC4CC4)c(Cl)c3)ccc2[C@@H]1NC(=O)O[C@@H]1CN2CCC1CC2 experimental_target="glucosylceramide synthase (GCS) (Homo sapiens (Human))" readout_kind=pIC50 reported_measurement=8.99
structure_smiles=CCc1cccc(-c2cc3c(cc2F)[C@H](NC(=O)O[C@@H]2CN4CCC2CC4)C(C)(C)CC3)c1 experimental_target="glucosylceramide synthase (GCS) (Homo sapiens (Human))" readout_kind=pIC50 reported_measurement=9.29
structure_smiles=CCc1cccc(-c2ccc3c(c2)CCC(C)(C)[C@H]3NC(=O)O[C@@H]2CN3CCC2CC3)c1 experimental_target="glucosylceramide synthase (GCS) (Homo sapiens (Human))" readout_kind=pIC50 reported_measurement=9.35
structure_smiles=CCCCOc1ccc(-c2cc3c(cc2OCC)[C@H](NC(=O)O[C@@H]2CN4CCC2CC4)C(C)(C)C3)cc1 experimental_target="glucosylceramide synthase (GCS) (Homo sapiens (Human))" readout_kind=pIC50 reported_measurement=9.29

src = patent US20240262819A1
